List of herbicidal effect against ALOMY (Alopecurus myosuroides) values.
system: Alopecurus myosuroides; assay: Herbicidal post-emergence action; type: in vivo; conditions: post-emergence method, 80 g/ha
Write the answer as a number in %, unit excluded.

Look over these answered cases.
INSERT INTO measurements (molecule, scale_unit, endpoint_result) VALUES
  ('Cc1cc(C)c(C2=C([O-])C3CC4(CC3C2=O)OCC=CCO4)c(C)c1.[Na+] (centres unmarked)', '%', 100),
  ('C=C1CC2C(=O)C(c3c(C)cc(C)cc3CC)=C(OC(=O)C(C)C)C2C1 (centres unmarked)', '%', 0),
  ('CCc1cc(C)cc(CC)c1C1=C(O)[C@H]2CC3(C[C@H]2C1=O)OCC(OC)CO3 (relative stereo)', '%', 100),
  ('C#CCON=C1C[C@@H]2C(O)=C(c3c(CC)cc(C)cc3CC)C(=O)[C@@H]2C1 (relative stereo)', '%', 100),
  ('Cc1cc(C)c(C2=C(OC(=O)C(C)C)C3CC4(CC3C2=O)OCCO4)c(C)c1 (centres unmarked)', '%', 60),
  ('Cc1cc(C)c(C2=C(OC(=O)OC(C)C)C3CC4(COC(C)(C)O4)CC3C2=O)c(C)c1 (mixture of isomers)', '%', 80),
  ('CCc1cc(C)cc(C)c1C1=C(OC(=O)C(C)(C)C)C2CC3(CC2C1=O)OCC=CCO3 (centres unmarked)', '%', 100);

Turning now to a further record.
Measured herbicidal effect against ALOMY (Alopecurus myosuroides) (Alopecurus myosuroides), entry Cc1cc(C)c(C2=C(O)C3CC4(CC3C2=O)OCCO4)c(C)c1 (centres unmarked) : 100

* * *

system: Setaria viridis; experiment: Herbicidal pre-emergence action; format: in vivo; settings: pre-emergence method, 80 g/ha, greenhouse, visual assessment vs untreated controls
List of herbicidal effect SETVI values.
Kindly format the answer as number then unit.

INSERT INTO assay_data (compound, endpoint_result) VALUES
  ('CCc1cc(C)cc(CC)c1C1=C(OC(C)=O)[C@H]2C[C@@]3(COC(C)(C)O3)C[C@H]2C1=O', '70%'),
  ('C#CCON=C1CC2C(=O)C(c3c(CC)cc(C)cc3CC)=C(OC(=O)OCC)C2C1 (stereo not shown)', '40%'),
  ('CCOC(=O)OC1=C(c2c(CC)cc(C)cc2CC)C(=O)C2CC(=NOCC3CC3)CC12 (stereo not shown)', '40%');

The value of herbicidal effect SETVI measured for the compound CCOC1COC2(C[C@@H]3C(O)=C(c4c(CC)cc(C)cc4CC)C(=O)[C@@H]3C2)OC1 (relative stereo) turned out to be 90%

The value of herbicidal effect SETVI measured for the compound CCc1cc(C)cc(C)c1C1=C(OC(=O)OC(C)C)C2CC3(COC(C)(C)O3)CC2C1=O (mixture of isomers) turned out to be 80%

The value of herbicidal effect SETVI measured for the compound Cc1cc(C)c(C2=C(OC(=O)C(C)(C)CCl)C3CC4(COC(C)(C)O4)CC3C2=O)c(C)c1 (mixture of isomers) turned out to be 0%

The value of herbicidal effect SETVI measured for the compound CCOC(=O)OC1=C(c2c(CC)cc(C)cc2CC)C(=O)C2CC3(CC12)OCC(OCc1ccccc1)CO3 (stereo not shown) turned out to be 50%

* * *

System: Setaria viridis
Assay: Herbicidal pre-emergence action
Type: in vivo
Details: pre-emergence method, 80 g/ha, greenhouse, visual assessment vs untreated controls
Excerpt: Seeds of monocotylidonous and dicotylidonous weed and crop plants are placed in sandy loam in wood fibre pots and covered with soil. The test compounds, formulated in the form of wettable powders (WP), are then, as an aqueous suspension with a water application rate of 600 l/ha (converted), with 0.2% of wetting agent added, applied to the surface of the covering soil in different amounts. […]
reported_endpoint: herbicidal effect SETVI (%)
Write the answer as a number in %, unit excluded.

The value of herbicidal effect SETVI measured for the compound CCc1cc(C)cc(C)c1C1=C(OC(=O)C(C)(C)C)C2CC3(COC(C)(C)O3)CC2C1=O (stereo not drawn) turned out to be 90

The value of herbicidal effect SETVI measured for the compound CCc1cc(C)cc(CC)c1C1=C(O)[C@H]2CC3(C[C@H]2C1=O)OCC(C)CO3 (relative stereo) turned out to be 90

The value of herbicidal effect SETVI measured for the compound CCc1cc(C)cc(CC)c1C1=C([O-])C2CC3(CC2C1=O)OCC=CCO3.[Na+] (stereo not drawn) turned out to be 90

The value of herbicidal effect SETVI measured for the compound CCc1cc(C)cc(CC)c1C1=C(OC(=O)C(C)C)C2CC3(COC(C)(C)O3)CC2C1=O (stereo not drawn) [I-b-7] turned out to be 70

The value of herbicidal effect SETVI measured for the compound CCOC(=O)OC1=C(c2c(CC)cc(C)cc2CC)C(=O)[C@@H]2CC3(C[C@H]12)OCCO3 (relative stereo) turned out to be 70

The value of herbicidal effect SETVI measured for the compound CCC(C)(C)C(=O)OC1=C(c2c(C)cc(C)cc2C)C(=O)C2CC3(COC(C)(C)O3)CC12 (mixture of isomers) turned out to be 30

* * *

tested on: Alopecurus myosuroides; assay: Herbicidal post-emergence action; type: in vivo; conditions: post-emergence method, 80 g/ha
List of herbicidal effect against ALOMY (Alopecurus myosuroides) values.
Write the answer as a number in %, unit excluded.

The value of herbicidal effect against ALOMY (Alopecurus myosuroides) measured for the compound CCC(=O)OC1=C(c2c(C)cc(C)cc2C)C(=O)C2CC3(COC(C)(C)O3)CC12 (mixture of isomers) [I-b-50] turned out to be 100

The value of herbicidal effect against ALOMY (Alopecurus myosuroides) measured for the compound CCc1cc(C)cc(CC)c1C1=C(O)[C@H]2CC3(C[C@H]2C1=O)OCC=CCO3 (relative stereo) [I-a-14] turned out to be 90

The value of herbicidal effect against ALOMY (Alopecurus myosuroides) measured for the compound Cc1cc(C)c(C2=C([O-])C3CC4(CC3C2=O)OCC(C)CO4)c(C)c1.[Na+] (centres unmarked) [I-f-9] turned out to be 80

The value of herbicidal effect against ALOMY (Alopecurus myosuroides) measured for the compound CCOC1COC2(C[C@@H]3C(O)=C(c4c(CC)cc(C)cc4CC)C(=O)[C@@H]3C2)OC1 (relative stereo) [I-a-28] turned out to be 100

The value of herbicidal effect against ALOMY (Alopecurus myosuroides) measured for the compound CCOC(=O)OC1=C(c2c(C)cc(C)cc2OC)C(=O)C2CC3(CC12)OCCO3 (racemic) [I-c-64] turned out to be 80

* * *

List of herbicidal effect SETVI values.
test system: Setaria viridis; test: Herbicidal pre-emergence action; format: in vivo; details: pre-emergence method, 80 g/ha, greenhouse, visual assessment vs untreated controls
Write the answer as a number in %, unit excluded.

Look over these answered cases.
INSERT INTO results (molecule, target_entity, reported_endpoint, scale_unit, endpoint_result) VALUES
  ('C=C1CC2C(=O)C(c3c(C)cc(C)cc3CC)=C(OC(=O)OCC)C2C1 (racemic) [I-c-76]', 'Setaria viridis', 'herbicidal effect SETVI', '%', 90),
  ('CCc1cc(C)cc(CC)c1C1=C(OC(=O)C(C)C)C2CC3(CC2C1=O)OCC=CCO3 (stereo not drawn) [I-b-12]', 'Setaria viridis', 'herbicidal effect SETVI', '%', 90);

Turning now to a further record.
Measured herbicidal effect SETVI (Setaria viridis), entry C=C1CC2C(=O)C(c3c(C)cc(C)cc3OC)=C(OC(=O)OCC)C2C1 (racemic) [I-c-61] : 90

* * *

List of herbicidal effect against ALOMY (Alopecurus myosuroides) values.
System: Alopecurus myosuroides
Test: Herbicidal post-emergence action
Assay type: in vivo
Conditions: post-emergence method, 80 g/ha
Protocol: Seeds of monocotylidonous and dicotylidonous weed and crop plants are placed in sandy loam in wood fibre pots, covered with soil and cultivated in a greenhouse under good growth conditions. […] After the test plants have been kept in the greenhouse under optimum growth conditions for about three weeks, the effect of the preparations is assessed visually in comparison to untreated controls (herbicidal effect in percent: 100% effect=the plants have died, 0% effect=like control plants).
Write the answer as a number in %, unit excluded.

Look over these answered cases.
INSERT INTO measurements (molecule, scale_unit, endpoint_result) VALUES
  ('Cc1cc(C)c(C2=C(O)[C@H]3CC4(C[C@H]3C2=O)OCC(C)CO4)c(C)c1 (relative stereo)', '%', 100),
  ('Cc1cc(C)c(C2=C(O)[C@H]3CC4(C[C@H]3C2=O)OCCCO4)c(C)c1 (relative stereo)', '%', 60),
  ('CCc1cc(C)cc(CC)c1C1=C([O-])C2CC3(CC2C1=O)OCCCCO3.[Na+] (centres unmarked)', '%', 100);

The value of herbicidal effect against ALOMY (Alopecurus myosuroides) measured for the molecule COc1cc(C)cc(C)c1C1=C(O)C2CC(=O)CC2C1=O (centres unmarked) turned out to be 0

The value of herbicidal effect against ALOMY (Alopecurus myosuroides) measured for the molecule CCOC(=O)OC1=C(c2c(CC)cc(C)cc2CC)C(=O)C2CC3(CC12)OCC(OCC)CO3 (centres unmarked) turned out to be 100
